Where do these numbers come from? They come from paper PMC7763444.

method notes: in vitro
assay conditions: human
property name: IC50 at 72 h

Use these answered entries as a reference point.
# compound, result value
records = [
    ("C=C(CCC(C)C1CCC2C3CCC4C(C)C(O)CCC4(C)C3CCC12C)C(C)C (centres unmarked) [Compound 3]", "> 50 µM"),
    ("C=C(CCC(C)C1CCC2C3CC=C4CC(O)CCC4(CO)C3CCC12C)C(C)C (centres unmarked) [Compound 19]", "> 50 µM"),
    ("C=C(CCC(C)C1CCC2C1(C)CC(O)C1C3(C)CCC(O)C(C)C3CCC21O)C(C)C (centres unmarked) [Compound 9]", "18.3 µM"),
    ("C=C(C(=O)CC(C)C1CCC2C1(C)CCC1C3(C)CCC(O)C(C)C3CCC21O)C(C)C (centres unmarked) [Compound 7]", "> 50 µM"),
    ("C=C(C(C)C)C(CC(C)C1CCC2C1(C)CC(O)C1C3(C)CCC(O)C(C)C3CCC21O)OC(C)=O (centres unmarked) [Compound 12]", "> 50 µM"),
    ("C=C(CCC(C)C1CCC2C3C(O)C=C4CC(O)CCC4(C)C3CCC12C)C(C)C (centres unmarked) [Compound 18]", "> 50 µM"),
]

Next, consider the following compound.
Write down IC50 at 72 h measured for item C=C(CCC(C)C1CCC2C3C(=O)C=C4CC(O)CCC4(CO)C3CCC12C)C(C)C (centres unmarked) [Compound 24] 45.9 µM

---

method notes: in vitro
assay conditions: human
property name: IC50 at 72 h (µM)
Answer with a number only, understood to be in µM.

# molecule, IC50 at 72 h [µM]
rows = [
    ("CC(C)[C@@H](C)/C=C/[C@@H](C)[C@H]1CC[C@H]2[C@]3(O)CC[C@H]4[C@H](C)[C@@H](O)CC[C@]4(C)[C@H]3CC[C@]12CO", 23.2),
]

Next, consider the following compound.
Write down IC50 at 72 h measured for item CC(=O)O[C@H]1C=C2C[C@@H](O)CC[C@]2(CO)[C@H]2CC[C@]3(C)[C@@H]([C@H](C)CCCC(C)C)CC[C@H]3[C@H]12 14.5

---

The entries below are paired with their reported IC50 at 72 h.
method notes: Cytotoxicity, resazurin assay, 72 h
assay conditions: human, BJ cells (human normal fibroblasts)

# molecule, IC50 at 72 h
records = [
    ("C=C(CCC(C)C1CCC2C3CC=C4CC(O)CCC4(C)C3CCC12C)C(C)C (stereo not drawn) [Compound 17, 24-methyl-cholesta-5,24(28)-dien-3β-οl]", "> 50 µM"),
]

Next, consider the following molecule.
Write down IC50 at 72 h measured for item C=C(CCC(C)C1CCC2C3C(OC(C)=O)C=C4CC(O)CCC4(CO)C3CCC12C)C(C)C (centres unmarked) [Compound 22] 14.8 µM

---

The entries below are paired with their reported IC50 at 72 h.
method notes: in vitro
assay conditions: human

Use these answered entries as a reference point.
# compound, IC50 at 72 h
data = [
    ("CC(C)[C@@H](C)/C=C/[C@@H](C)[C@H]1CC[C@H]2C3=C[C@@H](O)[C@@]4(O)C[C@@H](O)CC[C@]4(C)[C@H]3CC[C@]12C", "> 50 µM"),
    ("C=C(C=CC(C)C1CCC2C3CC=C4CC(O)CCC4(CO)C3CCC12C)C(C)C (stereo not drawn)", "> 50 µM"),
]

Next, consider the following compound.
Write down IC50 at 72 h measured for item C=C(CCC(C)C1CCC2C3(O)CCC4C(C)C(O)CCC4(C)C3CCC12CO)C(C)C (stereo not drawn) > 50 µM
